Test system: RARg homodimer (NR concentration 270 nM)
Assay: PBM binding z-score (relative to random genomic background probes); higher = stronger binding; sequences stand for … in GC…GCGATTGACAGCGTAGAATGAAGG
READOUT_TYPE: PBM binding z-score
Lab note: jot the number down without any unit.

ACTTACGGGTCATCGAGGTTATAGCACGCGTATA; 4.96
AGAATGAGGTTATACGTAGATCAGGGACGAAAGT; 1.35
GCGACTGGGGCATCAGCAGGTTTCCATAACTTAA; -0.261
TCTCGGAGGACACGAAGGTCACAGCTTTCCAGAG; 4.93

# input Please state recorded PBM binding z-score (tested on RARg homodimer (NR concentration 270 nM)) of TAGCCTAGGACATTCAGGGGCCAGTATAGAAAGC
# output 0.546

# input Please state recorded PBM binding z-score (tested on RARg homodimer (NR concentration 270 nM)) of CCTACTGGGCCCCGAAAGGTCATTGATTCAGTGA
# output 3.23

# input Please state recorded PBM binding z-score (tested on RARg homodimer (NR concentration 270 nM)) of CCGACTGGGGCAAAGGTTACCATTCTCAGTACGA
# output 1.6

# input Please state recorded PBM binding z-score (tested on RARg homodimer (NR concentration 270 nM)) of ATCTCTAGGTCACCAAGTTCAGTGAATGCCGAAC
# output 6.25

# input Please state recorded PBM binding z-score (tested on RARg homodimer (NR concentration 270 nM)) of TCGATTAGGTTAGTCGGGGCATTCAGCCAACATA
# output 0.141

# input Please state recorded PBM binding z-score (tested on RARg homodimer (NR concentration 270 nM)) of ATCGAAAGGACGTGAGGTGAGTATACAGAAAGGC
# output 1.12

# input Please state recorded PBM binding z-score (tested on RARg homodimer (NR concentration 270 nM)) of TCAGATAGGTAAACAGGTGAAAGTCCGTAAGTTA
# output 0.219

# input Please state recorded PBM binding z-score (tested on RARg homodimer (NR concentration 270 nM)) of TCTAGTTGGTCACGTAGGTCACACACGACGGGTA
# output 3.67

# input Please state recorded PBM binding z-score (tested on RARg homodimer (NR concentration 270 nM)) of CATTACGGGTCACGAGGTTATAGCACGACGAGCG
# output 5.8

====

System: VDR:RXRa (NR concentration 270 nM, RXRa partner concentration 90 nM)
Assay: PBM binding z-score (relative to random genomic background probes); higher = stronger binding; sequences stand for … in GC…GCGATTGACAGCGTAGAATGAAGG
Parameter PBM binding z-score: see the listing below.
Lab note: jot the number down without any unit.

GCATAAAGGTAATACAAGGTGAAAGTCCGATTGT; 1.05
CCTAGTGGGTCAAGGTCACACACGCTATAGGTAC; 4.64
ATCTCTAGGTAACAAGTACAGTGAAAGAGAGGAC; 0.429
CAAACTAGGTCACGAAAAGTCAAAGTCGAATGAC; 2.71
AGAACGAGGCCACGCTGAGTTGATAGCAGAGTAG; 0.045

# input For the sequence shown here, TGAATGAGGTTATAAGATCAGGGAGCGTTGCAAA , give the reported PBM binding z-score.
# output 0.606

====

Test system: VDR:RXRa (NR concentration 270 nM, RXRa partner concentration 90 nM)
Assay: PBM binding z-score (relative to random genomic background probes); higher = stronger binding; sequences stand for … in GC…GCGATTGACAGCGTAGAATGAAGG
Class condition met: PBM binding z-score at least 4. Class condition not met: PBM binding z-score below 4.

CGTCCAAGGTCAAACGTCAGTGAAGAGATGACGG; condition met
ATCTTTAGGTAAAGATAGTTCAGTGAATGCAAAT; condition not met
CCTTACGGGTCACTGACGGGTTATAGCATTTGGA; condition not met
GGAACGAGGGCAAGTTGCTAGCAGAGTTTGATGG; condition not met
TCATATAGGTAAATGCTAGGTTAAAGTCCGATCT; condition not met
CGAACGAGGGCATGAGTTGATAGCGAATGCCGAT; condition not met

# input Decide: is the reported value of PBM binding z-score for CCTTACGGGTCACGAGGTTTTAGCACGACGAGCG equal to or greater than 4?
# output condition met

# input Decide: is the reported value of PBM binding z-score for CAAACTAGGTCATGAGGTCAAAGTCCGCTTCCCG equal to or greater than 4?
# output condition met

# input Decide: is the reported value of PBM binding z-score for TAGCCTGGGTCATTGGGCCAGTATAGTACGCATC equal to or greater than 4?
# output condition not met

# input Decide: is the reported value of PBM binding z-score for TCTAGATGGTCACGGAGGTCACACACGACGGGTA equal to or greater than 4?
# output condition met

# input Decide: is the reported value of PBM binding z-score for CCGACTGGGGCATAAGGGTACCATAAGCCAGCCC equal to or greater than 4?
# output condition not met

====

Test system: PPARg:RXRa DBDmut IVT, anti-RXR (DBD mutation: RXRa K156A/R161A, NR concentration 270 nM, RXRa partner concentration 90 nM)
Experiment: PBM binding z-score (relative to random genomic background probes); higher = stronger binding; sequences stand for … in GC…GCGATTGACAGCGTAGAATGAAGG
READOUT_TYPE: PBM binding z-score
Lab note: jot the number down without any unit.

# input For the sequence shown here, CCGACTGGGGCGAGGTTACCATAACGCACAGCCA , give the reported PBM binding z-score.
# output 0.314

# input For the sequence shown here, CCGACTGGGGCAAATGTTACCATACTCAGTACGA , give the reported PBM binding z-score.
# output 4.63

# input For the sequence shown here, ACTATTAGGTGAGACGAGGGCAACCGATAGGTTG , give the reported PBM binding z-score.
# output 4.85

# input For the sequence shown here, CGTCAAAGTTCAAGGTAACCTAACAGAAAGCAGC , give the reported PBM binding z-score.
# output 0.978

# input For the sequence shown here, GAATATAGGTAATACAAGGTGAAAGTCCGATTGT , give the reported PBM binding z-score.
# output 6.67

# input For the sequence shown here, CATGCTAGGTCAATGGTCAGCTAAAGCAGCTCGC , give the reported PBM binding z-score.
# output 3.11

# input For the sequence shown here, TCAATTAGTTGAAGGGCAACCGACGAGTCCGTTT , give the reported PBM binding z-score.
# output 1.84

# input For the sequence shown here, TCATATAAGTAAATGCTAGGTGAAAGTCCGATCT , give the reported PBM binding z-score.
# output 3.04

====

System: PPARg homodimer (NR concentration 180 nM)
Experiment: PBM binding z-score (relative to random genomic background probes); higher = stronger binding; sequences stand for … in GC…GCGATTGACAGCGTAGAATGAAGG
Parameter PBM binding z-score: see the listing below.
Lab note: jot the number down without any unit.

CCTAATGGGCCAAGGTCATTGATCAGTCAAAGCA; 2.49
ATCTCTAGGTAAAAGCTCAGTGAATCCCGAGGAT; -0.0545
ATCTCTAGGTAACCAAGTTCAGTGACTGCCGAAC; 1.09
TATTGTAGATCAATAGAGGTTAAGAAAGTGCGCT; 0.993

# input For the sequence shown here, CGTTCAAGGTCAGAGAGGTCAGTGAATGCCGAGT , give the reported PBM binding z-score.
# output 5.16

# input For the sequence shown here, AGTCATAGTTCAGGACGAGGTAACGTAAAGCACG , give the reported PBM binding z-score.
# output 0.947

====

System: THRa:RXRa (NR concentration 90 nM, RXRa partner concentration 90 nM)
Assay: PBM binding z-score (relative to random genomic background probes); higher = stronger binding; sequences stand for … in GC…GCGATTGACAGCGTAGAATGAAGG
READOUT_TYPE: PBM binding z-score
Lab note: jot the number down without any unit.

Below are worked cases with known answers.
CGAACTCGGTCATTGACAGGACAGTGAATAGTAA; 0.661
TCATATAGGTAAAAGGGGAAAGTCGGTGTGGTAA; 0.512
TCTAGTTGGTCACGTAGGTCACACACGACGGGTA; 2.39
TCTAGTTGGTCAAAGGTTACACACTCGAAATGCG; 2.37
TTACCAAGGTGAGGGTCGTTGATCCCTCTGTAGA; 1.8
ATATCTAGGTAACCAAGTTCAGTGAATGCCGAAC; 1.58
CCAGACAGGTGAGAAGCTAACTCAGCCTCGATTA; 0.183
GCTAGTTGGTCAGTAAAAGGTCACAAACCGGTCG; 3.32

Kindly review the next sequence as well.
# input For the sequence shown here, GCTAGTAGTTGAAAGGGCAACCGAATGATTCTCG , give the reported PBM binding z-score.
# output 0.474
